# target.entity: T1, mouse serum albumin (mouse, UniProt P07724 25-608)
# T1 construct: mature; purified protein on CM5 chips for BIAcore; also called MSA; mouse SA
# test: BIAcore SPR
outcome.measure: Kd
The reply should read as a number followed by its unit.

DOM7h-11-65 (other, Vk dAb) VL: DIQMTQSPSSLSASVGDRVTITCRASRPIGTMLSWYQQKPGKAPKLLILAFSRLQSGVPSRFSGSGSGTDFTLTISSLQPEDVATYYCAQAGTHPTTFGQGTKVEIKW; 9.4 nM
DOM7h-11-15 (other) VL: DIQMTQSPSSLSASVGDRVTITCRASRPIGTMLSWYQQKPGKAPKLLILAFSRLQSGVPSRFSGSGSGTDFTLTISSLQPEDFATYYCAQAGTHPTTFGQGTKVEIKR; 10.3 nM
DOM7h-11-79 (other, Vk dAb) VL: DIQMTQSPSSLSASVGDRVTITCRASRPIGTMLSWYQQKPGKAPKLLILAFSRLQSGVPSRFSGSGSGTDFTLTISSLQPEDFATYYCAQTGTHPTTFGQGTKVEIKW; 6.9 nM
DOM7h-11-69 (other, Vk dAb) VL: DIQMTQSPSSLSASVGDRVTITCRASRPIGTMLSWYQQKPGKAPKLLILAFSRLQSGVPSRFSGSGSGTDFTLTISSLQPEDFATYYCAQAGVHPTTFGQGTKVEIKR; 10 nM
DOM7h-11-56 (other, Vk dAb) VL: DIQMTQSPSSLSASVGDRVTISCRASRPIGTMLSWYQQKPGKAPKLLILAFSRLQSGVPSRFSGSGSGTDFTLTISSLQPEDFATYYCAQAGTHPTTFGQGTKVEIKW; 7.6 nM
DOM7h-11-57 (other, Vk dAb) VL: DIQMTQSPSSLSASVGDRVTITCRASRPIGTMLSWYQQKPGKAPKLLILAFSRLQSGVPSRFSGSGSGTDFTLTISNLQPEDFATYYCAQAGTHPTTFGQGTKVEIKW; 10.9 nM
DOM7h-11-68 (other, Vk dAb) VL: DIQMTQSPSSLSASVGDRVTITCRASRPIGTMLSWYQQKPGEAPKLLILAFSRLQSGVPSRFSGSGSGTDFTLTISSLQPEDFATYYCAQTGTHPTTFGQGTKVEIKW; 15.5 nM
DOM7h-11-67 (other, Vk dAb) VL: DIQMTQSPSSLSASVGDRVTITCRASRPIGTMLSWYQQKPGKAPKLLILAFSRLQSGVPSRFSGSGSGTDFTLTISSLQPEDFATYYCAQAGTHHTTFGQGTKVENKW; 6.7 nM

// query Which measured Kd value corresponds to DOM7h-11-80 (other, Vk dAb) VL: DIQMTQSPSSLSASVGDRVTIFCRASRPIGTMLSWYQQKPGKAPKLLILAFSRLQSGVPSRFSGSGSGTDFTLTISSLQPEDFATYYCAQAGTHPTTFGQGTKVEIKW ?
// result 10.9 nM
